These entries and their values trace back to patent US11278528B2.

Recorded activation at 10 µM for the following molecules
tgt: PPARα (Homo sapiens, UniProt Q07869)
Construct: purchased Fujikura Kasei Co., Ltd. PPARA-CBP
Sequence (Q07869 whole entry): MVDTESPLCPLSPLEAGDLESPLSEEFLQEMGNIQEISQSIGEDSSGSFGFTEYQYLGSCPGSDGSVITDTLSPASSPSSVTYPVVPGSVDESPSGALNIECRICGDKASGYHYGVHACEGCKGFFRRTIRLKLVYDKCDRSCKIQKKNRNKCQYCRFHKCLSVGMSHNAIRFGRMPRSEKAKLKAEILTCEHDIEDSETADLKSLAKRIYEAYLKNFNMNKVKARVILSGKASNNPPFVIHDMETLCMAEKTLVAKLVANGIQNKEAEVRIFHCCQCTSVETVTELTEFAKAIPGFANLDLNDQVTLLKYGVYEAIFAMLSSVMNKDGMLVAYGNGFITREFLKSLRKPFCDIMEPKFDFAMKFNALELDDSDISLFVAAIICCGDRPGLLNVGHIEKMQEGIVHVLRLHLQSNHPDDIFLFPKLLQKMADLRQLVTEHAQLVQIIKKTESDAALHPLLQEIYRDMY
assay.summary: Measurement of agonist activity against PPARα (EnBio RCAS for PPARα kit, PPARA-CBP)
Type: biochemical
measurement.parameters: evaluation concentration 10 μM; ratio to maximal response well (GW7647 0.5 μM); read-out: Binding ratio (%) @ 10 μM
Quick note: give the figure in %, leave out the unit.

Look over these answered cases.
INSERT INTO measurements (molecule, reported_endpoint, units_text, measured) VALUES
  ('Cc1nsc2c(-c3ccc(C#N)cc3)c(SC(C)(C)C(=O)O)ccc12 [COMPOUND 5]', 'activation at 10 µM', '%', 41.8),
  ('CC(C)(Sc1cc(F)c2cnsc2c1-c1ccc(C#N)cc1)C(=O)O [COMPOUND 10]', 'activation at 10 µM', '%', 71.3),
  ('N#Cc1ccc(-c2c(SC3(C(=O)O)CCC3)ccc3cnsc23)cc1 [COMPOUND 8]', 'activation at 10 µM', '%', 29.9);

q: Given the entry CC(C)(Sc1ccc2nc(C(F)(F)F)sc2c1-c1ccc(C#N)cc1)C(=O)O [COMPOUND 6] , report its measured activation at 10 µM.
a: 24.7

q: Given the entry CC(C)(Oc1cc2ncsc2cc1-c1ccc(C#N)cc1)C(=O)O [COMPOUND 3] , report its measured activation at 10 µM.
a: 16

q: Given the entry CC(C)(Sc1ccc2cnsc2c1-c1ccc(C(F)(F)F)cc1)C(=O)O [COMPOUND 9] , report its measured activation at 10 µM.
a: 87

q: Given the entry CC(C)(C)C(Sc1ccc2cnsc2c1-c1ccc(C#N)cc1)C(=O)O (centres unmarked) [COMPOUND 16] , report its measured activation at 10 µM.
a: 11.8

q: Given the entry CC(C)(Sc1ccc2cnsc2c1-c1ccc(C#N)cc1)C(=O)O [COMPOUND 2] , report its measured activation at 10 µM.
a: 69.8

q: Given the entry Cc1cc(-c2c(SC(C)(C)C(=O)O)ccc3cnsc23)ccc1C#N [COMPOUND 13] , report its measured activation at 10 µM.
a: 20.8

q: Given the entry Cc1nc2ccc(SC(C)(C)C(=O)O)c(-c3ccc(C#N)cc3)c2s1 [COMPOUND 7] , report its measured activation at 10 µM.
a: 47

q: Given the entry CC(C)(Sc1ccncc1-c1ccc(C#N)c2ccccc12)C(=O)O [Verinurad, reference compound] , report its measured activation at 10 µM.
a: 3.8

q: Given the entry CC(C)(Sc1ccc2ccccc2c1-c1ccc(C#N)cc1)C(=O)O [COMPOUND 4] , report its measured activation at 10 µM.
a: 52.6

q: Given the entry CCC(CC)(Sc1ccc2cnsc2c1-c1ccc(C#N)cc1)C(=O)O [COMPOUND 15] , report its measured activation at 10 µM.
a: 59

q: Given the entry CC(C)(Sc1ccc2cnsc2c1-c1ccc(Cl)cc1)C(=O)O [COMPOUND 12] , report its measured activation at 10 µM.
a: 92.6
